Values were extracted from paper PMC12377202.

- method-description: MTT cytotoxicity against normal cells
- Type: cell-based, human
- measurement-context: human, HEK-293 cells (normal human embryonic kidney); HEK-293, 0.156 umol/ml
measured-metric: viability at 3 days, 0.156 umol/ml (%)
Reply numerically in %, unit not repeated.

viability at 3 days, 0.156 umol/ml lookup needed for CNC(=O)c1cc(Oc2ccc(NC(=O)Nc3ccc(Cl)c(C(F)(F)F)c3)cc2)ccn1 [Sorafenib, sorafenib, reference compound] , thanks. 40.8

====

- method-description: MTT cytotoxicity against normal cells
- Type: cell-based, human
- measurement-context: human, HEK-293 cells (normal human embryonic kidney); HEK-293, 0.625 umol/ml
measured-metric: viability at 3 days, 0.625 umol/ml (%)
Dear colleague, please return just the value in %, with no unit written.

Reported viability at 3 days, 0.625 umol/ml, compound CNC(=O)c1cc(Oc2ccc(NC(=O)Nc3ccc(Cl)c(C(F)(F)F)c3)cc2)ccn1 [Sorafenib, sorafenib, reference compound] : ____ 17.6
